Entry source: ChEMBL document CHEMBL3763088

Recorded IC50 by entry
Biological target: Tubulin (Bos taurus, UniProt Q6B856+Q862L2+Q862F3)
Assay: Inhibition of bovine brain tubulin polymerization preincubated for 15 mins by spectrophotometric analysis
reported_endpoint: IC50 (nM)

1) COc1ccc(/C=C\c2cc(OC)c(OC)c(OC)c2)cc1NC(=O)[C@@H](N)CO.Cl : 13000
2) COc1ccc(/C=C\c2cc(OC)c(OC)c(OC)c2)c(N)c1N.Cl : 2300
3) COc1ccc(/C=C\c2cc(OC)c(OC)c(OC)c2)c(N)c1N : 1500
4) COc1ccc(/C=C\c2cc(OC)c(OC)c(OC)c2)c(N)c1.Cl : 2500
5) COc1ccc2c(c1N)CCCC=C2c1cc(OC)c(OC)c(OC)c1 : 1300
6) COc1ccc(/C=C\c2cc(OC)c(OC)c(OC)c2)cc1NC(=O)[C@@H](N)CO : 14000
7) COc1ccc(/C=C\c2cc(OC)c(OC)c(OC)c2)c(N)c1 : 1100

----------
Assay: Cytotoxicity against human DU145 cells assessed as growth inhibition after 48 hrs by SRB assay
Assay type: functional, DU-145
Mark class 1 for GI50 under 40 nM, class 0 if at or over.

1. COc1ccc(/C=C\c2cc(OC)c(OC)c(OC)c2)c(NC(=O)[C@@H](N)CO)c1NC(=O)[C@@H](N)CO.Cl.Cl : class 0
2. COc1ccc2c(c1NC(=O)CN)CCCC=C2c1cc(OC)c(OC)c(OC)c1.Cl : class 0
3. COc1ccc(/C=C\c2cc(OC)c(OC)c(OC)c2)c(N)c1N.Cl : class 0
4. COc1ccc(/C=C\c2cc(OC)c(OC)c(OC)c2)c(NC(=O)[C@@H](N)CO)c1NC(=O)[C@@H](N)CO : class 0
5. COc1ccc2c(c1NC(=O)[C@@H](N)CO)CCC=C2c1cc(OC)c(OC)c(OC)c1.Cl : class 0
6. COc1ccc(/C=C\c2cc(OC)c(OC)c(OC)c2)c(NC(=O)CN)c1.Cl : class 0
7. COc1ccc(/C=C\c2cc(OC)c(OC)c(OC)c2)c(N)c1.Cl : class 1
8. COc1ccc(/C=C\c2cc(OC)c(OC)c(OC)c2)cc1NC(=O)[C@@H](N)CO.Cl : class 1

----------
Assay: Cytotoxicity against human DU145 cells assessed as growth inhibition after 48 hrs by SRB assay
Format: functional, DU-145
reported_endpoint: GI50 (nM)

1. COc1ccc(/C=C\c2cc(OC)c(OC)c(OC)c2)cc1NC(=O)[C@@H](N)CO : 16.4
2. COc1ccc(/C=C\c2cc(OC)c(OC)c(OC)c2)c(NC(=O)[C@@H](N)CO)c1.Cl : 48.4
3. COc1ccc2c(c1NC(=O)CN)CCC=C2c1cc(OC)c(OC)c(OC)c1.Cl : 58.5

----------
Target: Leucine aminopeptidase (Sus scrofa, UniProt Q29571)
Sequence (Q29571 whole entry): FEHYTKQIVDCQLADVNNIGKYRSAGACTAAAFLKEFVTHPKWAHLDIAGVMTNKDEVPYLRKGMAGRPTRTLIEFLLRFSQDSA
Assay: Prodrug conversion assessed as porcine leucine aminopeptidase-mediated compound cleavage by HPLC analysis
Format: ADME
Conditions: pig
Recorded Drug metabolism by entry
reported_endpoint: Drug metabolism (%)

1. COc1ccc2c(c1NC(=O)CN)CCC=C2c1cc(OC)c(OC)c(OC)c1.Cl : 100
2. COc1ccc(/C=C\c2cc(OC)c(OC)c(OC)c2)cc1NC(=O)[C@@H](N)CO.Cl : 95
3. COc1ccc(/C=C\c2cc(OC)c(OC)c(OC)c2)c(NC(=O)CN)c1.Cl : 100

----------
Biological target: UniProtKB Q29571
Assay: Activity at porcine leucine aminopeptidase by HPLC analysis
Type: ADME
Details: pig
Recorded Activity by entry
reported_endpoint: Activity (µM/min)

1) COc1ccc2c(c1NC(=O)CN)CCC=C2c1cc(OC)c(OC)c(OC)c1.Cl : 15.5
2) COc1ccc(/C=C\c2cc(OC)c(OC)c(OC)c2)c(NC(=O)CN)c1.Cl : 180
3) COc1ccc(/C=C\c2cc(OC)c(OC)c(OC)c2)c(NC(=O)[C@@H](N)CO)c1.Cl : 1.2
4) COc1ccc2c(c1NC(=O)CN)CCCC=C2c1cc(OC)c(OC)c(OC)c1.Cl : 0.12

----------
Assay: Cytotoxicity against human SKOV3 cells assessed as growth inhibition after 48 hrs by SRB assay
Type: functional, SK-OV-3
reported_endpoint: GI50 (µM)

1) COc1ccc(/C=C\c2cc(OC)c(OC)c(OC)c2)c(NC(=O)CN)c1.Cl : 0.0485
2) COc1ccc(/C=C\c2cc(OC)c(OC)c(OC)c2)cc1NC(=O)[C@@H](N)CO : 0.00902
3) COc1ccc(/C=C\c2cc(OC)c(OC)c(OC)c2)c(NC(=O)[C@@H](N)CO)c1NC(=O)[C@@H](N)CO : 25.9
4) COc1ccc(/C=C\c2cc(OC)c(OC)c(OC)c2)c(N)c1N.Cl : 0.0228
5) COc1ccc(/C=C\c2cc(OC)c(OC)c(OC)c2)c(NC(=O)[C@@H](N)CO)c1.Cl : 0.0516
6) COc1ccc(/C=C\c2cc(OC)c(OC)c(OC)c2)cc1NC(=O)[C@@H](N)CO.Cl : 0.00396
7) COc1ccc2c(c1NC(=O)CN)CCCC=C2c1cc(OC)c(OC)c(OC)c1.Cl : 0.203
8) COc1ccc2c(c1NC(=O)[C@@H](N)CO)CCCC=C2c1cc(OC)c(OC)c(OC)c1.Cl : 47
9) COc1ccc2c(c1NC(=O)CN)CCC=C2c1cc(OC)c(OC)c(OC)c1 : 0.0138
10) COc1ccc2c(c1NC(=O)[C@@H](N)CO)CCC=C2c1cc(OC)c(OC)c(OC)c1.Cl : 11.6
11) COc1ccc(/C=C\c2cc(OC)c(OC)c(OC)c2)c(N)c1 : 0.0266
12) COc1ccc(/C=C\c2cc(OC)c(OC)c(OC)c2)c(N)c1.Cl : 0.00735
13) COc1ccc2c(c1NC(=O)CN)CCC=C2c1cc(OC)c(OC)c(OC)c1.Cl : 0.0485

----------
Assay: Cytotoxicity against human SKOV3 cells assessed as growth inhibition after 48 hrs by SRB assay
Format: functional, SK-OV-3
Settings: Homo sapiens, SK-OV-3, 48 h
Mark T for GI50 under 0.2 µM, F if at or over.

1) COc1ccc(/C=C\c2cc(OC)c(OC)c(OC)c2)c(NC(=O)[C@@H](N)CO)c1 : T
2) COc1ccc(/C=C/c2cc(OC)c(OC)c(OC)c2)c(NC(=O)[C@H](N)CO)c1.Cl : F
3) COc1ccc(/C=C\c2cc(OC)c(OC)c(OC)c2)cc1O : T
4) COc1ccc2c(c1NC(=O)[C@@H](N)CO)CCCC=C2c1cc(OC)c(OC)c(OC)c1 : F
5) COc1ccc2c(c1N)CCCC=C2c1cc(OC)c(OC)c(OC)c1 : T
6) COc1ccc(/C=C\c2cc(OC)c(OC)c(OC)c2)cc1N : T
7) COc1ccc2c(c1NC(=O)[C@@H](N)CO)CCC=C2c1cc(OC)c(OC)c(OC)c1 : F
8) COc1ccc(/C=C\c2cc(OC)c(OC)c(OC)c2)c(N)c1N : T
9) COc1ccc(/C=C\c2cc(OC)c(OC)c(OC)c2)c(NC(=O)CN)c1 : T

----------
Target: UniProt Q29571
Experiment: Prodrug conversion assessed as porcine leucine aminopeptidase-mediated compound cleavage by HPLC analysis
Type: ADME
Details: pig
reported_endpoint: Drug metabolism (%)

1. COc1ccc(/C=C\c2cc(OC)c(OC)c(OC)c2)c(NC(=O)[C@@H](N)CO)c1.Cl : 62
2. COc1ccc2c(c1NC(=O)CN)CCCC=C2c1cc(OC)c(OC)c(OC)c1.Cl : 100
3. COc1ccc(/C=C\c2cc(OC)c(OC)c(OC)c2)cc1NC(=O)[C@@H](N)CO : 95
4. COc1ccc(/C=C/c2cc(OC)c(OC)c(OC)c2)c(NC(=O)CN)c1.Cl : 100
5. COc1ccc(/C=C/c2cc(OC)c(OC)c(OC)c2)c(NC(=O)[C@H](N)CO)c1.Cl : 90

----------
Assay: Cytotoxicity against human DU145 cells assessed as growth inhibition after 48 hrs by SRB assay
Format: functional, DU-145
Settings: Homo sapiens, DU-145, 48 h
Recorded log10 of GI50 by entry
reported_endpoint: log10 of GI50 (log10 of the value in nM)

1. COc1ccc(/C=C\c2cc(OC)c(OC)c(OC)c2)cc1O : 0.78
2. COc1ccc(/C=C\c2cc(OC)c(OC)c(OC)c2)c(NC(=O)[C@@H](N)CO)c1 : 1.54
3. COc1ccc(/C=C\c2cc(OC)c(OC)c(OC)c2)c(N)c1 : 1.52
4. COc1ccc2c(c1NC(=O)[C@@H](N)CO)CCC=C2c1cc(OC)c(OC)c(OC)c1 : 4.61
5. COc1ccc2c(c1NC(=O)CN)CCC=C2c1cc(OC)c(OC)c(OC)c1 : 1.70
6. COc1ccc(/C=C\c2cc(OC)c(OC)c(OC)c2)c(NC(=O)CN)c1 : 1.64
7. COc1ccc2c(c1NC(=O)CN)CCCC=C2c1cc(OC)c(OC)c(OC)c1 : 2.71
8. COc1ccc(/C=C/c2cc(OC)c(OC)c(OC)c2)c(NC(=O)[C@H](N)CO)c1.Cl : 3.66
9. COc1ccc2c(c1N)CCCC=C2c1cc(OC)c(OC)c(OC)c1 : 0.35
10. COc1ccc(/C=C\c2cc(OC)c(OC)c(OC)c2)cc1N : 0.52
